target: Alpha-galactosidase A (Homo sapiens) (UniProt P06280); experiment: Counterscreen for Glucocerebrosidase Inhibitors: qHTS Assay for Human alpha-Galactosidase at pH 4.5 (AID 992); settings: purified enzyme, fluorogenic substrate; series mostly up to 76.9 µM
Sequence (P06280 whole entry, looked up): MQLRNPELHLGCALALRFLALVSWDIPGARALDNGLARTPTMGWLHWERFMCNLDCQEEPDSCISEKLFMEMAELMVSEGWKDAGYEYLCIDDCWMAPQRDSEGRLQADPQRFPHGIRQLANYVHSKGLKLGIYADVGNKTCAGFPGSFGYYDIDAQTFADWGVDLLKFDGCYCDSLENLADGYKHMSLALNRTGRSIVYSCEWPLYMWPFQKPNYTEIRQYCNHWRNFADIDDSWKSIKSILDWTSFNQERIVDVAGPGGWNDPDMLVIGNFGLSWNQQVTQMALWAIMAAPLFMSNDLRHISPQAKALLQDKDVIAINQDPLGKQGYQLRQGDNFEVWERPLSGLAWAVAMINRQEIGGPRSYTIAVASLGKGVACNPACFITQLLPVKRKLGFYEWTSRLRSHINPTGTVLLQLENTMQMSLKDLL
Activity calls are given as the source filed them. Calls follow the shape of the dose curve; as a rule, active = well fitted curve in the direction sought with a large enough effect; inactive = no such curve, though single readings can be large or run the other way.

- smilesRepresentation: "O=c1[nH]cnc2[nH]ncc12"
  outcome: "inactive"
- smilesRepresentation: "Nc1nc2c(ncn2COCCO)c(=O)[nH]1"
  outcome: "inactive"
- smilesRepresentation: "NCCc1ccc(O)c(O)c1"
  outcome: "inactive"
- smilesRepresentation: "Cc1[nH]c(=O)c(C#N)cc1-c1ccncc1"
  outcome: "inactive"
- smilesRepresentation: "Cc1cnc(NC(=O)C2=C(O)c3ccccc3S(=O)(=O)N2C)s1"
  outcome: "inactive"
- smilesRepresentation: "CC(=O)Oc1ccccc1C(=O)O"
  outcome: "inactive"
- smilesRepresentation: "NC(=O)c1cnccn1"
  outcome: "inactive"
- smilesRepresentation: "Cn1cnc([N+](=O)[O-])c1Sc1ncnc2nc[nH]c12"
  outcome: "inactive"
- smilesRepresentation: "CN1CCN(CCCN2c3ccccc3Sc3ccc(C(F)(F)F)cc32)CC1"
  outcome: "inactive"
- smilesRepresentation: "O=C1CCc2cc(OCCCCc3nnnn3C3CCCCC3)ccc2N1"
  outcome: "inactive"
- smilesRepresentation: "NC[C@H](O)c1ccc(O)c(O)c1"
  outcome: "inactive"
- smilesRepresentation: "N[C@@H]1CONC1=O"
  outcome: "inactive"
- smilesRepresentation: "CCOC(=O)C1=C[C@@]2(CC)CCCN3CCc4c(n1c1ccccc41)[C@H]32"
  outcome: "inactive"
